System: Hela cells
test_description: MTT cell viability assay, Hela cells
Assay type: cell-based
condition: Homo sapiens, 48 h, read-out: IC50 against Hela cells
reported_metric: IC50 (µM)
Answers are plain numbers, in µM.

Exam item: Any idea what IC50 was measured for COc1cc2ncnc(Nc3cccc(-c4cn(Cc5cc(Br)cc(Br)c5)nn4)c3)c2cc1OCCCN1CCOCC1 ?
Marked response: 5.66
